# Tested on: RPMI-8226 leukemia
# experiment: NCI tumour cell line growth inhibition, 48 h
assay-metric: TGI

## Input Quick one: TGI for CC(=O)Oc1ccc(-c2nnc(-c3ccc(OC(C)=O)cc3)nn2)cc1 ?
## Output > 100 µM

## Input Entry COc1cc(Nc2cc(Cl)cc(Cl)c2)nc(N)n1 please
## Output 56.5 µM

## Input Same lookup for Cc1ccc(-c2nc([P+](c3ccccc3)(c3ccccc3)c3ccccc3)c(N3CCOCC3)o2)cc1 , please.
## Output 1.16 µM

## Input And then CN(c1ccccc1)c1c2ccccc2nc2[nH]c3ccccc3c12 , what is it?
## Output 3.92 µM

## Input Same question for CN(CC(=O)Nc1ccccc1C(=O)O)c1ccccc1 please.
## Output > 100 µM

## Input Please do the same for CCOC(=O)c1c(C)n(-c2ccc(C)cc2)c(=O)c2ccccc2c(=O)c2c(=O)ccc(=O)c1=2 as well.
## Output 24.9 µM

## Input Try Cc1nc2ccc(N=Nc3c(C)noc3C)cc2[nH]1 next.
## Output 92.4 µM

## Input Same lookup for COc1cc(/C=C/C(=O)c2nc3cc(F)ccc3nc2C)cc(OC)c1OC , please.
## Output 3.07 µM

## Input Input ON1CCc2c([nH]c3ccccc23)C1c1ccc(Cl)cc1 (configuration not stated)
## Output 84.3 µM

## Input Try the compound COC(=O)N/N=C(\C)c1sc(-c2nc(C)c(/C(C)=N/NC(=O)OC)s2)nc1C
## Output > 100 µM

## Input Next compound up: CC(C)(C)n1c(=O)n2c(-c3ccccc3)c(-c3ccccc3)n2c1=O
## Output 61.1 µM

## Input What do we get for CC1=C(C(=O)NNC(=O)C[N+](C)(C)C)CC(C(=O)NNC(=O)C[N+](C)(C)C)=C(C)N1 ?
## Output > 100 µM

## Input And what about the compound COC(=O)C1=C(OC)C(=P2(c3ccccc3)CC(c3ccccc3)=C2c2ccccc2)C(C(=O)OC)=C1C(=O)OC (configuration not stated) ?
## Output > 31.2 µM

## Input Moving on to Cc1nn(C(=O)Cc2ccccc2)c2c1C(c1ccc(/C=C/c3ccccc3)cc1)SC(N)=N2 (configuration not stated)
## Output > 100 µM

## Input Check O=c1oc2ccccc2c(-c2ccc(O)cc2)c1Oc1ccccc1 too.
## Output > 100 µM

## Input Now this one: C#CCN(C(=O)C(F)(F)F)C(/C=C\C(=O)OC)(C(=O)OCC)C(=O)OCC
## Output > 100 µM

## Input Next compound up: N#CC1=C(N)Oc2c(ccc3ccccc23)C1c1cc2ccccc2n2nnnc12 (configuration not stated)
## Output > 100 µM

## Input How about this compound: CCN(C(=O)N[C@@H](CC(C)C)C(=O)NCC(=O)OC)c1ccccc1
## Output > 100 µM

## Input And for COC1=CC(=O)C(O)=C(CC2(C)C(C)CCC3(C)C2CCCC3(C)C)C1=O (configuration not stated) ?
## Output 90.1 µM

## Input Can you check FC(F)(F)c1cccc(CNC2CCN(CCc3ccccc3)CC2)c1 next?
## Output 51.5 µM

## Input Same read-out for CCOC(=O)C1C(NC(N)=O)N(Cc2ccccc2)C(=O)N1Cc1ccccc1 (configuration not stated) ?
## Output > 100 µM

## Input What do you have for CCN1CCN(CC(=O)Nc2nc3ccc(NCc4ccc(Br)cc4)cc3s2)CC1 ?
## Output 4.07 µM

## Input Record: Clc1ccc(C(OCn2ccnc2)c2nc3ccccc3[nH]2)c(Cl)c1 (configuration not stated)
## Output 92.4 µM

## Input Could you do the same for Oc1c(Br)cc(Cl)cc1C(c1cc(Cl)cc(Br)c1O)C(Cl)(Cl)Cl , please?
## Output 6.47 µM

## Input Now the compound O=C(NO)c1ccc(CNc2cccc3nc(C4CC4)n(-c4ccccc4)c(=O)c23)cc1
## Output 11.3 µM

## Input Param item: COc1cc(CCN)c(OC)c(OC)c1
## Output > 100 µM

## Input COc1ccc(Cn2c(Br)c3c(c2-c2cc(OC)c(OC)c(OC)c2)CCc2sc(N)nc2-3)cc1 , same question.
## Output 32.4 µM

## Input Ok, now COc1cc2c(cc1OCCN1CCN(CCN3C(=O)c4cccc5cccc(c45)C3=O)CC1)N=C[C@@H]1CCCN1C2=O
## Output 34.8 µM

## Input Check N/C(CCSCCSCC/C(N)=N\O)=N\O too.
## Output > 100 µM

## Input Also CCN(CC)c1ccc(Cl)c2c1C(O)(C(C)C)C2(C)C (configuration not stated) , if possible.
## Output 31.2 µM

## Input Same question, NS(=O)(=O)c1cc2c(cc1Cl)NCNS2(=O)=O this time
## Output > 100 µM

## Input Lookup CC(C)=CCC[C@@H](C)C1=C(N)C(O)=C(C)C(=O)C1=O
## Output > 75 µM

## Input Same again, this time with COc1ccc(OC/C(N)=N/NC(=O)c2ccncc2)cc1
## Output > 100 µM

## Input Further, for N#Cc1c(CC(=O)O)cc(=O)n2c1[nH]c1ccccc12 ?
## Output > 100 µM

## Input Lookup CNCc1cccc2c1OCCOCCOCCNS(=O)(=O)c1ccc(cc1)-c1cnc(N)c(n1)C(=O)N2
## Output 4.26 µM

## Input Subsequent entry: CC(=O)Nc1nc2c(=O)c3ccccc3sc2s1
## Output > 100 µM

## Input Next compound up: O=C1c2ccccc2C2(O)N(c3ccccc3)C(=S)N(c3ccccc3)C12O (configuration not stated)
## Output > 100 µM

## Input Next compound: COc1cc2c(Oc3ccc(-c4cnc(Nc5ccc(F)cc5)n(C)c4=O)cc3F)ccnc2cc1OCCCN1CCOCC1
## Output 4.71 µM

## Input Would you mind doing C[C@H]1CCC/C=C/[C@@H]2C[C@H](OC(=O)CN(C)C)C[C@H]2[C@H](O)/C=C/C(=O)O1 as well?
## Output > 26.6 µM

## Input Moving on to the next compound: O=C1c2ccccc2-c2c1c1c(O)cccc1n2Cc1ccccc1
## Output > 100 µM

## Input Another compound to check: N#CC1=C(S)N(C2OC(CO)C(O)C(O)C2O)C(c2ccccc2)=CC1c1ccco1 (configuration not stated)
## Output > 100 µM

## Input Now the compound O=c1c(-c2ccccc2)c(SCCCN2CCCCC2)n(-c2ccccc2)c(=S)n1-c1ccccc1
## Output 37.7 µM

---

I'd be grateful if you could share measured TGI for these entries.
# Test system: MALME-3M melanoma
# experiment: NCI tumour cell line growth inhibition, 48 h

## Input Name the recorded TGI for c1cc(OCCCCCOc2cccc(-c3nc4ccccc4[nH]3)c2)cc(-c2nc3ccccc3[nH]2)c1 .
## Output 5.02 µM

## Input Try OCc1ccc(N2CCc3ccc(F)cc3C2)cc1Cl next.
## Output 26.9 µM

## Input And for N#CC1(CCCCl)CCCCC1 ?
## Output > 100 µM

## Input Next compound up: O/N=C1/C(=C/c2ccc(OCc3ccccc3)cc2)CCCC1C(NO)c1ccc(OCc2ccccc2)cc1 (stereo unspecified)
## Output > 100 µM

## Input Next record, please: O=C(CC1(O)C(=O)Nc2c(Cl)cc(Cl)cc21)c1cccc([N+](=O)[O-])c1 (stereo unspecified)
## Output 35.9 µM

## Input Next entry: CO/C(N)=C(\C#N)N=Cc1ccsc1
## Output > 100 µM

## Input Check COc1cc2c(cc1OCCCOc1cc3c(cc1OC)C(=O)N1CCC[C@H]1C(=O)N3)N=C[C@@H]1CCCN1C2=O too.
## Output 29.8 µM

## Input Cool, now NCCCCNOCCCN
## Output > 100 µM

## Input Another: COc1cc(/C=C/C(=O)c2nc3cc(F)ccc3nc2C)cc(OC)c1OC
## Output > 100 µM

## Input Please do the same for COc1cc(S(=O)(=O)Nc2nc(-c3ccc(N=Cc4ccccc4O)cc3)cs2)ccc1Cl as well.
## Output > 100 µM

## Input Follow-up entry: Cc1nc2ccc(N=Nc3c(C)noc3C)cc2[nH]1
## Output > 100 µM

---

# Test system: HCT-15 colon
# experiment: NCI tumour cell line growth inhibition, 48 h
assay-metric: TGI (µM)
Write down the numeric answer in µM and omit the unit.

## Input Given the entry C/C=C(/CCC1NCCc2c1[nH]c1ccccc21)[Si](C)(C)C (stereo not given) , what TGI was observed with HCT-15 colon?
## Output 18.5

## Input Consider next the compound O=c1c(-c2ccccc2)c(SCCCN2CCCCC2)n(-c2ccccc2)c(=S)n1-c1ccccc1 in the same way.
## Output 38.7

## Input # iterate: Oc1c(Br)cc(Cl)cc1C(c1cc(Cl)cc(Br)c1O)C(Cl)(Cl)Cl
## Output 9.06

## Input Again, but for COc1ccc(NC(=S)c2ccc([N+](=O)[O-])o2)cc1
## Output 3.56
